The values you see were collected from ChEMBL document CHEMBL1126943.

# System: Mus musculus
# test protocol: Antinociception at dosage of 30 mg/kg administered in 10 mice.
# Type: functional
Overview of recorded No. of mice for various molecules
# respond with the number and nothing more

Worked cases, answers included:
molecule | measured metric | measured
O=C(CCc1cc[n+]([O-])cc1)NNC(=O)N1Cc2ccccc2Oc2ccc(Cl)cc21 | No. of mice | 5
O=C(CCCc1ccncc1)NNC(=O)N1Cc2ccccc2Oc2ccc(Cl)cc21 | No. of mice | 6
Cl.O=C(Cc1ccncc1)NNC(=O)N1Cc2ccccc2Oc2ccc(Cl)cc21 | No. of mice | 1
Cl.O=C(Cc1ccccn1)NNC(=O)N1Cc2ccccc2Oc2ccc(Cl)cc21 | No. of mice | 2

Now for another entry.
Exercise: Find the measured No. of mice of Cl.O=C(NNC(=O)C(F)(F)C(O)c1ccncc1)N1Cc2ccccc2Oc2ccc(Cl)cc21 (stereo not given) and report it.
Solution: 5

* * *

Overview of recorded ED50 for various compounds
# Tested on: Mus musculus
# test protocol: Effective dose required for writhing response in mouse […] on sc administration
# Assay type: functional
Give just the numeric value; mg/kg need not be written.

compound | measured
Cl.O=C(CCc1ccncc1)NNC(=O)N1Cc2ccccc2Oc2ccc(Cl)cc21 | 6.3
Cl.O=C(CCc1ccccn1)NNC(=O)N1Cc2ccccc2Oc2ccc(Cl)cc21 | 9.8
Cl.O=C(NNC(=O)C(F)(F)C(O)c1ccccn1)N1Cc2ccccc2Oc2ccc(Cl)cc21 (centres undefined) | 7.1

Now for another entry.
Exercise: Find the measured ED50 of "O=C(CCCc1ccncc1)NNC(=O)N1Cc2ccccc2Oc2ccc(Cl)cc21" and report it.
Solution: 9.7

* * *

# Test system: Mus musculus
# test protocol: Effective dose required for writhing response in mouse […] on ig administration
# Format: functional
# experimental conditions: po
// returns condition not met unless ED50 is strictly below 9 mg/kg, in which case condition met

Here are 5 compounds together with their reported answers.
compound | classification
Cl.O=C(CCc1ccncc1)NNC(=O)N1Cc2ccccc2Oc2ccc(Cl)cc21 | condition met
CC(C)Cc1ccc(C(C)C(=O)O)cc1 (configuration not stated) | condition met
CC(=O)Oc1ccccc1C(=O)O | condition not met
Cl.O=C(CCc1ccccn1)NNC(=O)N1Cc2ccccc2Oc2ccc(Cl)cc21 | condition met
Cl.O=C(NNC(=O)C(F)(F)Cc1ccccn1)N1Cc2ccccc2Oc2ccc(Cl)cc21 | condition not met

Read the next record carefully.
Exercise: Determine whether this compound shows ED50 lower than 9 mg/kg (ties excluded): Cl.O=C(NNC(=O)C(F)(F)C(O)c1ccncc1)N1Cc2ccccc2Oc2ccc(Cl)cc21 (configuration not stated)
Solution: condition not met
